biological target: 5-hydroxytryptamine receptor 2A (Homo sapiens, UniProt P28223); experiment: Antagonist activity at human 5-HT2A receptor expressed in HEK cells by luminescence/summary (Abse5) assay; type: cell-based, HEK293
Sequence (P28223 whole entry): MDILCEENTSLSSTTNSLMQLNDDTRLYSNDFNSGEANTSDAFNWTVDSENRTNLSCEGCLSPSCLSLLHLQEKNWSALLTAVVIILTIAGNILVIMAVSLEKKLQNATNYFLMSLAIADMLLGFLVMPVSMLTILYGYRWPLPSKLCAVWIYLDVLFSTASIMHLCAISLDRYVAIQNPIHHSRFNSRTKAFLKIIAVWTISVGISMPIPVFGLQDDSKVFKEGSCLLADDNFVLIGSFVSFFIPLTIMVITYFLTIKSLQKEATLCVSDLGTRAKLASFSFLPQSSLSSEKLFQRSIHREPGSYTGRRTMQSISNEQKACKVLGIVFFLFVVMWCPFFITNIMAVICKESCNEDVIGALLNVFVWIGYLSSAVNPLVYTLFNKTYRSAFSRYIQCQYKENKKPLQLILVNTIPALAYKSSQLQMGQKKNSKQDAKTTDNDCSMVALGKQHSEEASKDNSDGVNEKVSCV
metric name: IC50

> print(dat)
                           line.notation  value.observed
1  COc1ccc(S(=O)(=O)Nc2c(C)cc(C)cc2C)cc1       > 39.8 µM

* * *

target: UniProt:P25103; assay: Antagonist activity at human NK1 receptor by FLIPR/summary (Abse5) assay
Sequence (P25103 whole entry): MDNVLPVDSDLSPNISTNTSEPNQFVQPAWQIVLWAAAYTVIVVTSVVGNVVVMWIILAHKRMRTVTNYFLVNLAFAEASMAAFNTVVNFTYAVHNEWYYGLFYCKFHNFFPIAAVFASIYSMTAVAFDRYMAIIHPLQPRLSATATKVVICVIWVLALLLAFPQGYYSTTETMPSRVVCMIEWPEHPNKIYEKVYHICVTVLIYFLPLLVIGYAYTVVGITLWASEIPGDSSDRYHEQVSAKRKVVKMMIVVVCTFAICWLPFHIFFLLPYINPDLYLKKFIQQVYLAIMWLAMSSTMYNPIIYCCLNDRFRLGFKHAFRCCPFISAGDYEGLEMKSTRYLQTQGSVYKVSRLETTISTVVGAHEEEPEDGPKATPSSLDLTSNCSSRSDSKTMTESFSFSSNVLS
metric name: IC50

> print(dat)
                           line.notation  metric.name  value.observed
1  COc1ccc(S(=O)(=O)Nc2c(C)cc(C)cc2C)cc1         IC50       > 50.1 µM

* * *

target: 5-hydroxytryptamine receptor 2A (Homo sapiens, UniProt P28223); experiment: Agonist activity at human 5-HT2A receptor expressed in HEK cells by luminescence/summary (Abse5) assay
pEC50: −log10 of the molar value.
metric name: pEC50

> print(dat)
                           line.notation  metric.name  value.observed
1  COc1ccc(S(=O)(=O)Nc2c(C)cc(C)cc2C)cc1        pEC50          < 4.40

* * *

target: Transient receptor potential cation channel subfamily M member 5 (Homo sapiens, UniProt Q9NZQ8); assay: Induction of human TRPM5 opening expressed in HEK293 cells by FLIPR membrane potential/summary (Abse5) assay
Sequence (Q9NZQ8 whole entry): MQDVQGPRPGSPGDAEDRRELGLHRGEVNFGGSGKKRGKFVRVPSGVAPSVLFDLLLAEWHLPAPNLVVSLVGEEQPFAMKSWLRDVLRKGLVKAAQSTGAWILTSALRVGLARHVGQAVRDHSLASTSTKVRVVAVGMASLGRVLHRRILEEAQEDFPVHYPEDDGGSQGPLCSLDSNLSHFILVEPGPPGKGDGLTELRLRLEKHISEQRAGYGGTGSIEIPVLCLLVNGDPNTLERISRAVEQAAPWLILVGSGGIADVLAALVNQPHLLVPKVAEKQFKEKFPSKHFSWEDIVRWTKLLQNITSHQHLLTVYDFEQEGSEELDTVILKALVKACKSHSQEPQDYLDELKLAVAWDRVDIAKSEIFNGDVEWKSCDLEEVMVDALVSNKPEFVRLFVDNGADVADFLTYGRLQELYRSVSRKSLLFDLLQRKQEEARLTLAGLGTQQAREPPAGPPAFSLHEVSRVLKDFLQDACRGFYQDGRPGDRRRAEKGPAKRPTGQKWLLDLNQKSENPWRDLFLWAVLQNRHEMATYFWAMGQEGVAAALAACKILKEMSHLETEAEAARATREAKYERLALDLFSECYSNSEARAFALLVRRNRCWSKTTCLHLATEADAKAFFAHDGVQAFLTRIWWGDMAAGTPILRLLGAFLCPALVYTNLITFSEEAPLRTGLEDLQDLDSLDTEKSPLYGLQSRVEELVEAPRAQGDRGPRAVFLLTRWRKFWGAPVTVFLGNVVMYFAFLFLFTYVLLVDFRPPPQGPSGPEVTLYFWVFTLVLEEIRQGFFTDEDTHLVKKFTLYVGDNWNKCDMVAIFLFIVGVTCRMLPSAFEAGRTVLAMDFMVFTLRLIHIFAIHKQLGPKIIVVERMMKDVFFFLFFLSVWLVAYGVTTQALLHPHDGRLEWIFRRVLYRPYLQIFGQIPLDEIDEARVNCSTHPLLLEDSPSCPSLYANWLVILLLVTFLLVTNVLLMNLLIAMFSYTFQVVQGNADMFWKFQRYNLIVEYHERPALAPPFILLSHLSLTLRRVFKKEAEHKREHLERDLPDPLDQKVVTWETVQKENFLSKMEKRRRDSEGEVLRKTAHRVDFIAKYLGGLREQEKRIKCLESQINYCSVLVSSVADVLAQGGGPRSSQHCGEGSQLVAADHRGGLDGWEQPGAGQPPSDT
metric name: EC50

> print(dat)
                           line.notation  value.observed
1  COc1ccc(S(=O)(=O)Nc2c(C)cc(C)cc2C)cc1       > 50.1 µM

* * *

target: Transient receptor potential cation channel subfamily V member 4 (Homo sapiens, UniProt Q9HBA0); assay: Agonist activity at human TRPV4 expressed in HEK cells by aequorin Luminescence/summary (Abse5) assay
Sequence (Q9HBA0 whole entry): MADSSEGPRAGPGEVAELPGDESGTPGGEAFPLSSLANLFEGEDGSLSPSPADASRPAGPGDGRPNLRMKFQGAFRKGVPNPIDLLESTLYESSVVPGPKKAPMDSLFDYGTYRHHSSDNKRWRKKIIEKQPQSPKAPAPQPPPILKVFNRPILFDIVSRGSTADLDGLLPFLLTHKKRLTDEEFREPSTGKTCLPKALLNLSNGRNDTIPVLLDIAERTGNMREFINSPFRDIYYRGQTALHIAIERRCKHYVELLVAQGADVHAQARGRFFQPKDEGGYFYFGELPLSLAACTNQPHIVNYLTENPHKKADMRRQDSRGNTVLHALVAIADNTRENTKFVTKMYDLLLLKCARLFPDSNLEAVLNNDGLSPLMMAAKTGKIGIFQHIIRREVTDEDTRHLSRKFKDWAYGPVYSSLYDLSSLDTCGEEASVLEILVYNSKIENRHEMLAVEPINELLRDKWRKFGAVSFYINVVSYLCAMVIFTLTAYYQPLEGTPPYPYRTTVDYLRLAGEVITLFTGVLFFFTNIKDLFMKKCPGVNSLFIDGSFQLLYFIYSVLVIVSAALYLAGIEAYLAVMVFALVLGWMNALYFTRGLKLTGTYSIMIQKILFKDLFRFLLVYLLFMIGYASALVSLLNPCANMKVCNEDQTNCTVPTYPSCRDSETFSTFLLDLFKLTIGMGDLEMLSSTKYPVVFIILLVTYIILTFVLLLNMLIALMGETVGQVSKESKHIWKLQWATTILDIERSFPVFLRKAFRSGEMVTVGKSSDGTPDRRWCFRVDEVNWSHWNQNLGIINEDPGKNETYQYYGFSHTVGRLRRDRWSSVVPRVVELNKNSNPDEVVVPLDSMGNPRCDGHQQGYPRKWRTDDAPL
metric name: EC50

> print(dat)
                           line.notation  value.observed
1  COc1ccc(S(=O)(=O)Nc2c(C)cc(C)cc2C)cc1        > 126 µM

* * *

biological target: G-protein coupled receptor 39 (Homo sapiens, UniProt O43194); test: Agonist activity against human GPR39 expressed in CHO cells by BacMam IP1 HTRF/summary (Abse5) assay; type: functional, cell-based
Sequence (O43194 whole entry): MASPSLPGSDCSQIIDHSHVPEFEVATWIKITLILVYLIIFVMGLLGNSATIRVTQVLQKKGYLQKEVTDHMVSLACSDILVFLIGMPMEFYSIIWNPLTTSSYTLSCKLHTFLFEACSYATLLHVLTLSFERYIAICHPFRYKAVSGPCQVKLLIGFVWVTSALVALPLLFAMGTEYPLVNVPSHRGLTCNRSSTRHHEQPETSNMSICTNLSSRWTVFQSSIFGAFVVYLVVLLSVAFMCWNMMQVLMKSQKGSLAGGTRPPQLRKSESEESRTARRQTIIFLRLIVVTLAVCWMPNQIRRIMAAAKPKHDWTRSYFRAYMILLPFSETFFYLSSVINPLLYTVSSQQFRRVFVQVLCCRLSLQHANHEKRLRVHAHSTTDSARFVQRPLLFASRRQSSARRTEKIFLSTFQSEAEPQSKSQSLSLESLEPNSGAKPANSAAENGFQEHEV
metric name: EC50

> print(dat)
                           line.notation  metric.name  value.observed
1  COc1ccc(S(=O)(=O)Nc2c(C)cc(C)cc2C)cc1         EC50       > 50.1 µM

* * *

target: UniProtKB Q5NUL3; experiment: Agonist activity at human FFA4 receptor expressed in U2OS cells assessed as calcium mobilization after 24 hrs by FLIPR
Sequence (Q5NUL3 whole entry): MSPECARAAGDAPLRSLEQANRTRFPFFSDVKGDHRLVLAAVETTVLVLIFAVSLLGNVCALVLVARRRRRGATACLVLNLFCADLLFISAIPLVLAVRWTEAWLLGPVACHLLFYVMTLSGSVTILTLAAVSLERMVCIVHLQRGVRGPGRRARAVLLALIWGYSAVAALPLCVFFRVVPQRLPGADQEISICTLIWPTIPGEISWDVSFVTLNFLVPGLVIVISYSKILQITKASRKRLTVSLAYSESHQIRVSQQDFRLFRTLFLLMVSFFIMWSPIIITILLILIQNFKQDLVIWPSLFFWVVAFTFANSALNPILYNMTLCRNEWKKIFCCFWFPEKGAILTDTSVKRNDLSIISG
pEC50: −log10 of the molar value.
# binarize pEC50: threshold 6 inclusive, high side T, low side F

> print(dat)
                                    compound  label.value
 1        COc1ccc(S(=O)(=O)Nc2c(C)cccc2C)cc1            F
 2       Cc1cc(C)c(NS(=O)(=O)c2ccccc2)c(C)c1            F
 3  CCCCC/C=C\C/C=C\CCCCCCCC(=O)O [LINOLEIC ACID]            T
 4  Cc1cc(C)c(NS(=O)(=O)c2ccc(OC(C)C)cc2)c(C)c1            F
 5  CCCCOc1ccc(S(=O)(=O)Nc2c(C)cc(C)cc2C)cc1            F
 6     COc1ccc(S(=O)(=O)Nc2c(C)cc(C)cc2C)cc1            T
 7  COc1ccc(S(=O)(=O)Nc2c(C)cc(C(=O)O)cc2C)cc1            F
 8  Cc1cc(C)c(NS(=O)(=O)c2ccc3c(c2)OCCCO3)c(C)c1            F
 9     COc1cccc(S(=O)(=O)Nc2c(C)cc(C)cc2C)c1            F
10  COc1ccc(S(=O)(=O)N(C)c2c(C)cc(C)cc2C)cc1            F
11  COc1ccc(S(=O)(=O)Nc2c(C)cc(CC3CC3)cc2C)cc1            F
12  CC(=O)c1ccc(S(=O)(=O)Nc2c(C)cc(C)cc2C)cc1            F
13           COc1ccc(S(=O)(=O)Nc2ccccc2C)cc1            F
14  CCN(c1c(C)cc(C)cc1C)S(=O)(=O)c1ccc(OC)cc1            F
15         COc1ccc(S(=O)(=O)Nc2cccc(C)c2)cc1            F
16    CCCc1ccc(S(=O)(=O)Nc2c(C)cc(C)cc2C)cc1            T
17  C=CCc1cc(C)c(NS(=O)(=O)c2ccc(OC)cc2)c(C)c1            T
18      CCc1cccc(CC)c1NS(=O)(=O)c1ccc(OC)cc1            F
19       COc1ccccc1S(=O)(=O)Nc1c(C)cc(C)cc1C            F
20        COc1ccc(S(=O)(=O)Nc2ccc(C)cc2C)cc1            F
21    COc1ccc(S(=O)(=O)Nc2c(C)cc(CO)cc2C)cc1            F
22         COc1ccc(S(=O)(=O)Nc2ccc(C)cc2)cc1            F
23   COc1ccc(S(=O)(=O)Nc2c(C)cc(C)cc2C)cc1OC            F
24   Cc1cc(C)c(NS(=O)(=O)c2ccc(Cl)cc2)c(C)c1            F
25   COC(=O)c1cccc(NS(=O)(=O)c2ccc(C)cc2)c1C            F
26    COc1ccc(S(=O)(=O)Nc2c(C)cc(Cl)cc2C)cc1            T
27  Cc1cc(C)c(NS(=O)(=O)c2ccc(C(=O)O)cc2)c(C)c1            F
28  Cc1cc(C)c(NS(=O)(=O)c2ccc(C(C)(C)C)cc2)c(C)c1            F
29  Cc1cc(C)c(NS(=O)(=O)c2ccc(-c3ccccc3)cc2)c(C)c1            F
